Assay: solvent given as SMILES
Settings: in CS(C)=O
ENDPOINT: absorption maximum (nm)
// return numeric value only (unit: nm, not printed)

Some compounds with known absorption maximum results, for comparison:
MOLECULE SMILES	ENDPOINT	VALUE REPORTED
N#CC(C#N)=Cc1cn(-c2ccccc2)nc1-c1ccc([N+](=O)[O-])cc1	absorption maximum	343
CCCCn1cc(/C=C/c2cc(=O)oc3cc(C)ccc23)c2ccccc21	absorption maximum	414

# lookup: absorption maximum of O=C1C=C(Nc2ccccc2)CCC1
307

// same read-out, input: COc1ccc(/C=C/c2ccc(-c3nnc(-c4ccc(-c5cc6ccccc6s5)cc4)o3)cc2)cc1
348

====

Experiment: solvent given as SMILES
Conditions: in C1CCOC1
Kindly apply the following: True if absorption maximum is less than 400 nm, False in every other case.

Some entries whose results are on file:
COMPOUND	ASSIGNED LABEL
O=C1OC(=O)c2ccc(N(c3ccccc3)c3c4ccccc4cc4ccccc34)c3cccc1c23	False
CCOC(=O)C1=CN(c2ccccc2)C=CC1c1ccccc1 (stereo not drawn)	True
c1cc2c([nH]c3c4[nH]c5sccc5c4c4nsnc4c23)s1	False
Cc1ccc(C2=C3C=CC(/C=C/c4ccccc4)=[N+]3[B-](F)(F)n3c(Cl)ccc32)cc1	False

Consider the record given below.
Take the compound Cc1ccc(/C=N/c2cc(C(C)C)c(O)cc2C)cc1 and say whether its absorption maximum is less than 400 nm.
True

====

Assay: solvent given as SMILES
Conditions: in CS(C)=O
ENDPOINT: absorption maximum (nm)
// return numeric value only (unit: nm, not printed)

MOLECULE SMILES	VALUE REPORTED
C(=C\c1ccncn1)/c1ccc(-c2ccc(N(c3ccccc3)c3ccccc3)cc2)cc1	393
CCC1=C(C)C(=O)n2c1cc1c(C)c(CC)c(C)n1c2=O	428
CCN(CC)c1ccc2c(C#N)c(/C=C(\C#N)c3nc4ccccc4s3)c(=O)oc2c1	531
COc1cc(Br)cc2cc(-c3cc4cc(Br)cc(OC)c4oc3=O)oc12	359
Cc1cc(C)cc(NC(=O)c2sc(Br)nc2C)c1	283.1
BrC1=CN2C[n+]3cc(Br)cc(Br)c3N=C2C(Br)=C1	449
CCN(CC)c1ccc2cc(/C=C/c3cccc[n+]3CCCS(=O)(=O)[O-])c(=O)oc2c1	494
F[B-]1(F)n2c(-c3cccs3)cc(-c3cccs3)c2N=C2C(c3cccs3)=CC(c3cccs3)=[N+]21	752

# lookup: absorption maximum of Nc1ccccc1C(=O)O
342

// same read-out, input: CCOC(=O)CN1C(=O)C2=C(c3ccc(N4CCCCC4)cc3)N(CC(=O)OCC)C(=O)C2=C1c1ccc(N2CCCCC2)cc1
540

====

Assay: solvent given as SMILES
Details: in C1CCOC1
Kindly apply the following: fulfilled if absorption maximum is less than 500 nm, not fulfilled in every other case.

Some entries whose results are on file:
COMPOUND	ASSIGNED LABEL
O=P1(c2ccccc2)C(c2cc(C(F)(F)F)cc(C(F)(F)F)c2)=Cc2c3ccc4cccc5ccc(c6cc(-c7ccccc7)n1c26)c3c45 (stereo not given)	fulfilled
COc1ccc2c(CC(=O)NN)coc2c1	fulfilled

Take the compound CCC1(CC)c2ccccc2-c2c1c1c(c3c2C(CC)(CC)c2cc(-c4cccs4)ccc2-3)C(CC)(CC)c2cc(N(c3ccccc3)c3ccccc3)ccc2-1 and say whether its absorption maximum is less than 500 nm.
fulfilled

// same read-out, input: CCc1c(C)c2n(c1C)[B-](F)(F)[N+]1=C(c3ccc[nH]3)c3ccccc3C1=C2
not fulfilled

// same read-out, input: O=C(c1ccncc1)c1ccc(-n2c3ccc(-n4c5ccccc5c5ccccc54)cc3c3cc(-n4c5ccccc5c5ccccc54)ccc32)cc1
fulfilled

The reported numbers originate from the Deep4Chem optical property database.
